Entries annotated with measured TGI
- System: SN12C renal
- assay info: NCI tumour cell line growth inhibition, 48 h

{"columns": ["molecule", "target or system", "TGI"],
 "data": [
  ["O=[N+]([O-])c1ccc(N=P(c2ccccc2)(c2ccccc2)c2ccccc2)n2nnnc12", "SN12C renal", "> 100 µM"],
  ["COC(=O)[C@@H]1CN(C(=O)Cc2ccccc2)C(=O)N1", "SN12C renal", "> 100 µM"],
  ["CCc1nnc2sc(-c3ccc(-c4ccccc4[N+](=O)[O-])o3)nn12", "SN12C renal", "> 100 µM"],
  ["O=C(OC1C#CCSCC#C/C=C\\1)c1ccc2c(c1)C(=O)c1ccccc1C2=O (stereo unspecified)", "SN12C renal", "> 100 µM"],
  ["N#Cc1cnn(C(=O)c2nn(-c3ccc(Cl)cc3)cc2O)c1N", "SN12C renal", "17.5 µM"],
  ["O=C(O)COc1c(Cl)cc(Cl)c(C(c2c(Cl)cc(Cl)c(OCC(=O)O)c2Cl)C(Cl)(Cl)Cl)c1Cl", "SN12C renal", "> 100 µM"]
]}

====

- System: NCI/ADR-RES ovarian
- assay info: NCI tumour cell line growth inhibition, 48 h
As shown below, each of these molecules has a reported TGI value.
reported metric: TGI (µM)

{"columns": ["molecule", "reported metric", "lt gt eq", "measured result"],
 "data": [
  ["CC(=O)OC1CCC2(C)C(CCC3C2CCC2(C)C(c4ccc(=O)oc4)C(OC(C)=O)CC32O)C1 (centres undefined)", "TGI", "=", 0.0555],
  ["Nc1nc(SCC#CCCl)c2[nH]cnc2n1", "TGI", "=", 30.4],
  ["O=C1c2ccccc2CC12Cc1ccc3c(c1C2=O)CCCC3 (centres undefined)", "TGI", ">", 100],
  ["CCOC(=O)c1c(CN2CCCCC2)nc2ccc(Cl)cc2c1-c1ccccc1", "TGI", "=", 58.2],
  ["O=C(c1ccccc1)c1nn(-c2cccc(Cl)c2)c2nc3nc(-c4ccccc4)cc(=O)n3nc12", "TGI", ">", 25],
  ["Cc1ccc([N+](=O)[O-])cc1S(=O)(=O)Nc1ccc(C2=NN(S(=O)(=O)c3cc([N+](=O)[O-])ccc3C)C(c3ccccc3O)C2)cc1 (centres undefined)", "TGI", ">", 100],
  ["CO[C@H]1C[C@H](O[C@H]2CC[C@@]3(C)[C@H](CC[C@@H]4[C@@H]3CC[C@]3(C)[C@@H](C5=CC(=O)OC5)CC[C@]43O)C2)O[C@H](C)[C@H]1O", "TGI", "=", 0.0472],
  ["O=C1c2ccccc2C(=O)c2c1ccc1c3ccccc3n(-c3ccccc3)c21", "TGI", ">", 100],
  ["CNC(=O)OC1/C(C)=C\\C(C)C(O)C(OC)CC(C)CC2=C(OC)C(=O)C=C(C2=O)N(C)C(=O)/C(C)=C/C=C\\C1OC (centres undefined)", "TGI", "=", 62]
]}

====

- Tested on: 786-0 renal
- assay info: NCI tumour cell line growth inhibition, 48 h

{"columns": ["molecule", "target or system", "TGI"],
 "data": [
  ["CNC(=O)c1sc(-n2cnc3cc(OC)c(OC)cc32)cc1OCc1ccccc1C(F)(F)F", "786-0 renal", "> 25 µM"],
  ["O=[N+]([O-])c1ccc(N=P(c2ccccc2)(c2ccccc2)c2ccccc2)n2nnnc12", "786-0 renal", "> 100 µM"],
  ["COc1cc(/C=N/NC(=O)c2cnn3c2NC(c2ccccc2)C3)ccc1OCc1ccccc1 (configuration not stated)", "786-0 renal", "4.03 µM"],
  ["CO[C@H]1C[C@H](O[C@H]2CC[C@@]3(C)[C@H](CC[C@@H]4[C@@H]3CC[C@]3(C)[C@@H](C5=CC(=O)OC5)CC[C@]43O)C2)O[C@H](C)[C@H]1O", "786-0 renal", "< 0.0129 µM"],
  ["C=C1C(=O)C23C(O)CC4C(C)(C)CCC(O)C4(C)C2CC(OC(C)=O)C1[C@H]3O (some centres not stated)", "786-0 renal", "6.82 µM"],
  ["CCc1nnc2sc(-c3ccc(-c4ccccc4[N+](=O)[O-])o3)nn12", "786-0 renal", "> 100 µM"],
  ["CCOC(=O)C(Oc1ccc(OC)c2c1C(=O)CCC2)c1ccccc1 (configuration not stated)", "786-0 renal", "> 100 µM"],
  ["O=C(CC(C(=O)c1ccsc1)c1cccs1)c1cccs1 (configuration not stated)", "786-0 renal", "> 100 µM"],
  ["COc1ccc2cc(CNCCCCCCNC(=O)Nc3cccc4ccccc34)ccc2c1", "786-0 renal", "> 100 µM"],
  ["COC(=O)c1sc2c(c1C(=O)OC)C(=Nc1ccc(OC)cc1)SC2=Nc1ccc(OC)cc1", "786-0 renal", "1.33 µM"],
  ["CCOC(=O)/C(C(=O)c1ccc[nH]1)=C1/CCCN1C", "786-0 renal", "> 100 µM"],
  ["Cc1csc(NCc2ccc(Cl)cc2)n1", "786-0 renal", "> 100 µM"]
]}

====

- Test system: OVCAR-4 ovarian
- assay info: NCI tumour cell line growth inhibition, 48 h

{"columns": ["compound", "GI50"],
 "data": [
  ["CC(C)(C)n1cc(-c2ccnc(NCCCNS(=O)(=O)c3cccc4ccccc34)c2)c(-c2cccc(O)c2)n1", "1.92 µM"],
  ["Oc1ccccc1/C=N\\NC(=S)Nc1ccc(F)cc1", "0.462 µM"],
  ["OC[C@H]1C[C@](O)(c2ccccc2Cl)[C@@H](c2ccccc2Cl)O1", "24.3 µM"],
  ["C=C(C)[C@@H]1CC[C@]2(C(=O)O)CC[C@]3(C)[C@H](CC[C@@H]4[C@@]5(C)CCC(N)C(C)(C)[C@@H]5CC[C@]43C)[C@@H]12 (some centres undefined)", "2.79 µM"],
  ["C=C1C(C)C2C(Cc3ccccc3)NC(=O)C23C(OC(C)=O)C=CC(C)(O)C(=O)C(C)C/C=C/C3C1O (centres undefined)", "10.4 µM"],
  ["Nc1nc(SCC#CCCl)c2[nH]cnc2n1", "4.32 µM"],
  ["COc1cc(F)c(F)c(Nc2ccc(I)cc2F)c1NS(=O)(=O)C1(CC(O)CO)CC1 (centres undefined)", "16.6 µM"],
  ["CNC(=O)c1sc(-n2cnc3cc(OC)c(OC)cc32)cc1OCc1ccccc1C(F)(F)F", "> 25 µM"],
  ["C=CC[PH+](c1ccccc1)c1ccccc1.C=CC[PH+](c1ccccc1)c1ccccc1.[Pt+2].[S-]c1nc2ccccc2[nH]1.[S-]c1nc2ccccc2[nH]1", "2.56 µM"],
  ["O=C(/C=C/c1ccco1)Nc1ncc(Cc2cc(Cl)ccc2Cl)s1", "1.03 µM"],
  ["CC(=O)[CH-]C(=O)c1ccccc1.CC(=O)[CH-]C(=O)c1ccccc1.Cl.[O-]CCc1ccccn1.[O-]CCc1ccccn1.[Ti+4]", "41.4 µM"],
  ["O=C1c2ccc3c4c(ccc(c24)C(=O)N1CCCCO)C(=O)N(CCCCO)C3=O", "0.428 µM"],
  ["COc1ccc(/C=C\\c2cc(OC)c(OC)c(OC)c2)cc1NC(=O)/C=C/c1cc(OC)c(OC)c(OC)c1", "6.77 µM"],
  ["COC(=O)[C@]12CC[C@@H](C)[C@H](C)[C@@H]1C1=CC[C@@H]3[C@@]4(C)C[C@@H](OC(C)=O)[C@H](OC(C)=O)[C@@](C)(COC(C)=O)[C@@H]4[C@H](O)C[C@@]3(C)[C@]1(C)CC2", "3.21 µM"]
]}

====

- Tested on: NCI-H23 lung
- assay info: NCI tumour cell line growth inhibition, 48 h
reported metric: TGI

{"columns": ["compound", "measured result"],
 "data": [
  ["CCC(CCCC[C@H]1CC[C@@H]2CC(=O)C[C@H]12)OC (stereo partly drawn)", "> 100 µM"],
  ["CC(=O)OC1CCC2(C)C(CCC3C2CCC2(C)C(c4ccc(=O)oc4)C(OC(C)=O)CC32O)C1 (stereo not drawn)", "0.0296 µM"],
  ["CC/C(CC(=O)CCC(=O)Nc1ccc(C)c(C)c1)=N\\NC(=O)c1cc2ccccc2cc1O", "89.4 µM"],
  ["O=c1[nH]nc(-c2cccc([N+](=O)[O-])c2)[nH]1", "> 100 µM"],
  ["CN(C(=O)C12C3C4C1C1C2C3C41C#N)C(C)(C)C (stereo not drawn)", "> 100 µM"],
  ["CN1C/C(=C\\c2ccccc2)C2=NN(C(N)=S)[C@H](c3ccccc3)[C@@H]2C1", "> 100 µM"],
  ["O=C(OC1C#CCSCC#C/C=C\\1)c1ccc2c(c1)C(=O)c1ccccc1C2=O (stereo not drawn)", "> 100 µM"],
  ["O=C(NCC(O)COc1ccccc1)c1ccccc1O (stereo not drawn)", "> 100 µM"],
  ["CC/C(=C/c1ccc(OC)cc1)[N+](=O)[O-]", "5.74 µM"],
  ["CN(C)NC(=O)NC12CC3CC(CC(C3)C1)C2", "> 100 µM"],
  ["N#C/C(=C/c1ccc([N+](=O)[O-])o1)c1ccccc1", "> 100 µM"],
  ["COc1ccc(/C=N/n2c(-c3ccccc3)n[nH]c2=O)c(OC)c1", "> 100 µM"],
  ["COc1cc2c(c3oc4c(O)cccc4c(=O)c13)CC(C(C)(O)CCl)O2 (stereo not drawn)", "6.14 µM"],
  ["N#Cc1ccc2c(-c3ccnc(NC4CC4)n3)c(-c3ccc(F)cc3)nn2c1", "> 25 µM"],
  ["Cc1ccc(-c2ccc3c(c2)Sc2ccccc2O3)n1C", "> 100 µM"],
  ["COc1ccccc1NC(=O)c1sc2ncn(CCOc3ccccc3)c(=O)c2c1C", "> 50 µM"],
  ["CCOC(=O)c1c(N2CCN(C)CC2)[nH]c(=O)c(C(c2c(Cl)cccc2Cl)c2c(O)c(C(=O)OCC)c(N3CCN(C)CC3)[nH]c2=O)c1O", "> 100 µM"],
  ["CN(N=O)c1ccc(/C=C/c2ccnc3ccccc23)cc1", "> 100 µM"],
  ["CC(C)C(Sc1nc(N)nc2nc[nH]c12)C(=O)O (stereo not drawn)", "> 100 µM"],
  ["Cc1nc2nnc(CCCCCCCCc3nnc4nc(C)[nH]n34)n2[nH]1", "> 100 µM"],
  ["COc1ccc(C(CC(=O)c2cccs2)C(=O)c2ccc3c(c2)OCO3)cc1 (stereo not drawn)", "> 100 µM"],
  ["CCOC(=O)c1c(CN2CCCCC2)nc2ccc(Cl)cc2c1-c1ccccc1", "64.1 µM"],
  ["CCc1ccc([OH2+])c(C(=O)[O-])c1.CCc1ccc([OH2+])c(C(=O)[O-])c1.CCc1ccc([OH2+])c(C(=O)[O-])c1.CCc1ccc([OH2+])c(C(=O)[O-])c1.[Cu+2].[Cu+2]", "> 100 µM"]
]}

Just for reference, PubChem BioAssay (NCI) is where these values come from.
